test.target: PD-1-Ig binding to PD-L1-TVMV-His (PD-L1-His) (Homo sapiens)
Construct: hPDL1(19-239)-TVMV-His; made in house; host or cells: HEK293T cells
assay.remarks: PD-1/PD-L1 Homogenous Time-Resolved Fluorescence (HTRF) binding assay
test.parameters: PD-1-Ig (20 nM) / PD-L1-His (10 nM); range classes
Text: The ability of the macrocyclic peptides of the present disclosure to bind to PD-L1 was investigated using a PD-1/PD-L1 Homogenous Time-Resolved Fluorescence (HTRF) binding assay. Homogenous Time-Resolved Fluorescence (HTRF) Assays of Binding of Soluble PD-1 to Soluble PD-L1. […]
pIC50: −log10 of the molar value. Non-standard residues stand in square brackets, D forms with d. Residues, ends and D or L forms follow the SMILES beside them. Hyp = O=C(O)[C@@H]1C[C@@H](O)CN1; NMeNle = CCCC[C@H](NC)C(=O)O; NMeA = CN[C@@H](C)C(=O)O; βAla = NCCC(=O)O
quantity.name: pIC50

| compound | test.target | pIC50 |
| --- | --- | --- |
| CCCC[C@H]1C(=O)N(C)[C@@H](CCCC)C(=O)N[C@@H](CC(C)C)C(=O)NCCC(=O)N[C@@H](Cc2ccc(O)cc2)C(=O)N(C)[C@@H](C)C(=O)N[C@@H](CC(N)=O)C(=O)N2CCC[C@H]2C(=O)N[C@@H](Cc2c[nH]cn2)C(=O)N[C@@H](CC(C)C)C(=O)N2C[C@H](O)C[C@H]2C(=O)N[C@@H](Cc2c[nH]c3ccccc23)C(=O)NCC(=O)N[C@@H](Cc2c[nH]c3ccccc23)C(=O)N1C [Example 5003] (cyclo(GW[NMeNle][NMeNle]L[βAla]Y[NMeA]NPHL[Hyp]W)) | PD-1-Ig binding to PD-L1-TVMV-His (PD-L1-His) (Homo sapiens) | 5.00 to 7.00 |

--- query ---
For the compound "CCCC[C@H]1C(=O)N(C)[C@@H](CCCC)C(=O)N[C@@H](CO)C(=O)N[C@H](C(=O)NCC(N)=O)CNCC(=O)N[C@@H](Cc2ccc(O)cc2)C(=O)N(C)[C@@H](C)C(=O)N[C@@H](CC(N)=O)C(=O)N2CCC[C@H]2C(=O)N[C@@H](Cc2cnc[nH]2)C(=O)N[C@@H](CCC(N)=O)C(=O)N2C[C@H](O)C[C@H]2C(=O)N[C@@H](Cc2c[nH]c3ccccc23)C(=O)N[C@@H](CO)C(=O)N[C@@H](Cc2c[nH]c3ccccc23)C(=O)N1C" , the measured pIC50 on PD-1-Ig binding to PD-L1-TVMV-His (PD-L1-His) (Homo sapiens) was 7.00 to 8.00

----------
A collection of compounds and their measured pIC50
test.target: PD-1-Ig binding to PD-L1-TVMV-His (PD-L1-His) (Homo sapiens, UniProt Q9NZQ7)
Construct: hPDL1(19-239)-TVMV-His; made in house; host or cells: HEK293T cells
Sequence (Q9NZQ7 with tags, fused parts or gaps): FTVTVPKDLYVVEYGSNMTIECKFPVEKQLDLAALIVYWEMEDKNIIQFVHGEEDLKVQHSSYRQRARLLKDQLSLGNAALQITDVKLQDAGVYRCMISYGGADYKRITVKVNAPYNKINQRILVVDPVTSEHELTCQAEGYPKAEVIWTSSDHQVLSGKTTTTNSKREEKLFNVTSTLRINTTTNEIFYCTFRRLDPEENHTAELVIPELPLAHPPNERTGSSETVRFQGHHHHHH
assay.remarks: PD-1/PD-L1 Homogenous Time-Resolved Fluorescence (HTRF) binding assay
test.parameters: PD-1-Ig (20 nM) / PD-L1-His (10 nM); numeric values
Convention used: pIC50 is expressed as -log10 of the molar concentration.

| compound | pIC50 |
| --- | --- |
| CCCC[C@H]1C(=O)N(C)[C@@H](CCCC)C(=O)N[C@@H](CC(C)C)C(=O)N[C@H](C(N)=O)CNCC(=O)N[C@@H](Cc2ccc(F)cc2)C(=O)N2CCCC[C@H]2C(=O)N[C@@H](CC(N)=O)C(=O)N2CCC[C@H]2C(=O)N[C@@H](Cc2c[nH]cn2)C(=O)N[C@@H](CCC(=O)O)C(=O)N2C[C@H](O)C[C@H]2C(=O)N[C@@H](Cc2c[nH]c3ccccc23)C(=O)N[C@@H](C)C(=O)N[C@@H](Cc2cn(CC(=O)O)c3ccccc23)C(=O)N1C [Example 9052] | 8.00 |
| CCCC[C@H]1C(=O)N(C)[C@@H](CCCC)C(=O)N[C@@H](CC(C)C)C(=O)N[C@H](C(=O)NCC(N)=O)CNCC(=O)N[C@@H](Cc2ccc(O)cc2)C(=O)N(C)[C@@H](C)C(=O)N[C@@H](CC(N)=O)C(=O)N2CCC[C@H]2C(=O)N[C@@H](CCC(N)=O)C(=O)N[C@@H](CCC(=O)O)C(=O)N2C[C@H](O)C[C@H]2C(=O)N[C@@H](Cc2c[nH]c3ccccc23)C(=O)N[C@@H](CC(N)=O)C(=O)N[C@@H](Cc2cn(CC(=O)O)c3ccccc23)C(=O)N1C [Example 9007] | 8.30 |

--- query ---
Value of pIC50 reported for the compound CCCC[C@H]1C(=O)N(C)[C@@H](CCCC)C(=O)N[C@@H](C)C(=O)N[C@H](C(=O)NCC(N)=O)CCCNCC(=O)N[C@@H](Cc2ccc(O)cc2)C(=O)N(C)[C@@H](C)C(=O)N[C@@H](CC(=O)O)C(=O)N2CCC[C@H]2C(=O)N[C@@H](Cc2cnc[nH]2)C(=O)N[C@@H](CCC(N)=O)C(=O)N2C[C@H](O)C[C@H]2C(=O)N[C@@H](Cc2c[nH]c3ccccc23)C(=O)N[C@@H](CO)C(=O)N[C@@H](Cc2c[nH]c3ccccc23)C(=O)N1C [Example 10013] is 7.15

Numbers sourced from patent US9732119B2.
